# Procedure Summary: Test on the solubility in a simulated body fluid
# Format: physicochemical
# Condition Set: 0.01 M PBS pH 7.4, 37° C., 24 h
Metric Name: Compound concentration: DTTA

Compound	Metric Name	Measured Result
CCCN1CCCC[C@H]1C(=O)Nc1c(C)cccc1C.CCCN1CCCC[C@H]1C(=O)Nc1c(C)cccc1C.Cc1ccc(C(=O)OC(C(=O)O)C(OC(=O)c2ccc(C)cc2)C(=O)O)cc1 (stereo not shown) [Preparation Example 6, bis(ropivacaine) di-p-toluoyl tartarate]	Compound concentration: DTTA	22843.9 µM
CCCCN1CCCCC1C(=O)Nc1c(C)cccc1C.Cc1ccc(C(=O)OC(C(=O)O)C(OC(=O)c2ccc(C)cc2)C(=O)O)cc1 (stereo not shown) [Preparation Example 3, mono(bupivacaine) di-p-toluoyl tartarate]	Compound concentration: DTTA	7249 µM
CCCN1CCCC[C@H]1C(=O)Nc1c(C)cccc1C.Cc1ccc(C(=O)OC(C(=O)O)C(OC(=O)c2ccc(C)cc2)C(=O)O)cc1 (stereo not shown) [Preparation Example 5, mono(ropivacaine) di-p-toluoyl tartarate]	Compound concentration: DTTA	7073.8 µM
CCCCN1CCCCC1C(=O)Nc1c(C)cccc1C.CCCCN1CCCCC1C(=O)Nc1c(C)cccc1C.Cc1ccc(C(=O)OC(C(=O)O)C(OC(=O)c2ccc(C)cc2)C(=O)O)cc1 (stereo not shown) [Preparation Example 4, bis(bupivacaine) di-p-toluoyl tartarate]	Compound concentration: DTTA	5219.7 µM

* * *

# Procedure Summary: Test on the solubility in a simulated body fluid
# Assay type: physicochemical
# Condition Set: 0.01 M PBS pH 7.4, 37° C., 24 h
Each record here notes measured Compound concentration: Pamoic acid.
Metric Name: Compound concentration: Pamoic acid (µM)

Compound	Metric Name	Measured Result
CCCCN1CCCCC1C(=O)Nc1c(C)cccc1C.O=C(O)c1cc2ccccc2c(Cc2c(O)c(C(=O)O)cc3ccccc23)c1O [Preparation Example 10, mono(bupivacaine) pamoate]	Compound concentration: Pamoic acid	2560.5
CCCCN1CCCCC1C(=O)Nc1c(C)cccc1C.CCCCN1CCCCC1C(=O)Nc1c(C)cccc1C.O=C(O)c1cc2ccccc2c(Cc2c(O)c(C(=O)O)cc3ccccc23)c1O [Preparation Example 12, bis(bupivacaine) pamoate]	Compound concentration: Pamoic acid	142.9
CCCN1CCCC[C@H]1C(=O)Nc1c(C)cccc1C.O=C(O)c1cc2ccccc2c(Cc2c(O)c(C(=O)O)cc3ccccc23)c1O [Preparation Example 9, mono(ropivacaine) pamoate]	Compound concentration: Pamoic acid	2052.3
CCCCN1CCCCC1C(=O)Nc1c(C)cccc1C.CCCCN1CCCCC1C(=O)Nc1c(C)cccc1C.O=C(O)c1cc2ccccc2c(Cc2c(O)c(C(=O)O)cc3ccccc23)c1O [Preparation Example 15, bis(bupivacaine) pamoate]	Compound concentration: Pamoic acid	143

* * *

# Procedure Summary: Test on the solubility in a simulated body fluid
# Type: physicochemical
# Condition Set: phosphate buffered saline (simulated body fluid), 37 °C, aqueous buffer, thermodynamic from solid; simulated body fluid, 0.01 M PBS at pH 7.4; read-out: Saturated solubility
Each record here notes measured solubility at 24 h.
Metric Name: solubility at 24 h (µM)

Molecule	Metric Name	Unit Of Measurement	Measured Result
CCCN1CCCC[C@H]1C(=O)Nc1c(C)cccc1C [Ropivacaine free base, reference compound]	solubility at 24 h	µM	1360
CCCCN1CCCCC1C(=O)Nc1c(C)cccc1C (centres unmarked) [Bupivacaine free base, reference compound]	solubility at 24 h	µM	1450

* * *

Each record here notes measured Compound concentration: Pamoic acid.
# Procedure Summary: Test on the solubility in a simulated body fluid
# Format: physicochemical
# Condition Set: 0.01 M PBS pH 7.4, 37° C., 6 h
Metric Name: Compound concentration: Pamoic acid (µM)

Compound	Metric Name	Measured Result
CCCCN1CCCCC1C(=O)Nc1c(C)cccc1C.CCCCN1CCCCC1C(=O)Nc1c(C)cccc1C.O=C(O)c1cc2ccccc2c(Cc2c(O)c(C(=O)O)cc3ccccc23)c1O [Preparation Example 12, bis(bupivacaine) pamoate]	Compound concentration: Pamoic acid	149.7
CCCCN1CCCCC1C(=O)Nc1c(C)cccc1C.CCCCN1CCCCC1C(=O)Nc1c(C)cccc1C.O=C(O)c1cc2ccccc2c(Cc2c(O)c(C(=O)O)cc3ccccc23)c1O [Preparation Example 30, bis(bupivacaine) pamoate]	Compound concentration: Pamoic acid	137.9

* * *

Each record here notes measured Compound concentration: Bupivacaine.
# Procedure Summary: Test on the solubility in a simulated body fluid
# Format: physicochemical
# Condition Set: 0.01 M PBS pH 7.4, 37° C., 6 h
Metric Name: Compound concentration: Bupivacaine (µM)

Molecule	Metric Name	Measured Result
CCCCN1CCCCC1C(=O)Nc1c(C)cccc1C.CCCCN1CCCCC1C(=O)Nc1c(C)cccc1C.O=C(O)c1cc2ccccc2c(Cc2c(O)c(C(=O)O)cc3ccccc23)c1O [Preparation Example 12, bis(bupivacaine) pamoate]	Compound concentration: Bupivacaine	290.8
CCCCN1CCCCC1C(=O)Nc1c(C)cccc1C.CCCCN1CCCCC1C(=O)Nc1c(C)cccc1C.O=C(OC(C(=O)O)C(OC(=O)c1ccccc1)C(=O)O)c1ccccc1 (stereo not shown) [Preparation Example 2, bis(bupivacaine) dibenzoyl tartarate]	Compound concentration: Bupivacaine	6577
CCCCN1CCCCC1C(=O)Nc1c(C)cccc1C.CCCCN1CCCCC1C(=O)Nc1c(C)cccc1C.O=C(O)c1cc2ccccc2c(Cc2c(O)c(C(=O)O)cc3ccccc23)c1O [Preparation Example 29, bis(bupivacaine) pamoate]	Compound concentration: Bupivacaine	275.1
CCCCN1CCCCC1C(=O)Nc1c(C)cccc1C.Cc1ccc(C(=O)OC(C(=O)O)C(OC(=O)c2ccc(C)cc2)C(=O)O)cc1 (stereo not shown) [Preparation Example 3, mono(bupivacaine) di-p-toluoyl tartarate]	Compound concentration: Bupivacaine	7883.2

* * *

# Procedure Summary: Systemic pharmacokinetic study of a bis(bupivacaine) pamoate suspension after a single subcutaneous injection at three points in a hind limb in SD rats
# Format: in vivo
# Condition Set: male, rat, sc, single subcutaneous injection at three points in left hind limb, 5 mg/kg, bupivacaine in blood
# Excerpt: Systemic Pharmacokinetic Study of a bis(bupivacaine) pamoate Suspension After a Single Subcutaneously Injection at Three Points in a Hind Limb in SD Rats […]
Structures can show the parent of a compound that is named as a salt.
Metric Name: Tmax (min)

Molecule	Measured Result
CCCCN1CCCCC1C(=O)Nc1c(C)cccc1C (stereo not shown) [bupivacaine hydrochloride]	37.8

* * *

# Procedure Summary: Test on the solubility in a simulated body fluid
# Assay type: physicochemical
# Condition Set: 0.01 M PBS pH 7.4, 37° C., 24 h
Metric Name: Compound concentration: Pamoic acid (µM)

Compound	Unit Of Measurement	Measured Result
CCCCN1CCCCC1C(=O)Nc1c(C)cccc1C.CCCCN1CCCCC1C(=O)Nc1c(C)cccc1C.O=C(O)c1cc2ccccc2c(Cc2c(O)c(C(=O)O)cc3ccccc23)c1O [Preparation Example 29, bis(bupivacaine) pamoate]	µM	151.6
CCCCN1CCCCC1C(=O)Nc1c(C)cccc1C.CCCCN1CCCCC1C(=O)Nc1c(C)cccc1C.O=C(O)c1cc2ccccc2c(Cc2c(O)c(C(=O)O)cc3ccccc23)c1O [Preparation Example 30, bis(bupivacaine) pamoate]	µM	140.2

* * *

# Procedure Summary: Test on the solubility in a simulated body fluid
# Assay type: physicochemical
# Condition Set: 0.01 M PBS pH 7.4, 37° C., 15 min
Each record here notes measured Compound concentration: Pamoic acid.
Metric Name: Compound concentration: Pamoic acid (µM)

Molecule	Measured Result
CCCN1CCCC[C@H]1C(=O)Nc1c(C)cccc1C.O=C(O)c1cc2ccccc2c(Cc2c(O)c(C(=O)O)cc3ccccc23)c1O [Preparation Example 9, mono(ropivacaine) pamoate]	601.5
CCCCN1CCCCC1C(=O)Nc1c(C)cccc1C.CCCCN1CCCCC1C(=O)Nc1c(C)cccc1C.O=C(O)c1cc2ccccc2c(Cc2c(O)c(C(=O)O)cc3ccccc23)c1O [Preparation Example 29, bis(bupivacaine) pamoate]	97.3
CCCCN1CCCCC1C(=O)Nc1c(C)cccc1C.O=C(O)c1cc2ccccc2c(Cc2c(O)c(C(=O)O)cc3ccccc23)c1O [Preparation Example 10, mono(bupivacaine) pamoate]	857.9
CCCCN1CCCCC1C(=O)Nc1c(C)cccc1C.CCCCN1CCCCC1C(=O)Nc1c(C)cccc1C.O=C(O)c1cc2ccccc2c(Cc2c(O)c(C(=O)O)cc3ccccc23)c1O [Preparation Example 15, bis(bupivacaine) pamoate]	77.9

* * *

# Procedure Summary: Test on the solubility in a simulated body fluid
# Assay type: physicochemical
# Condition Set: 0.01 M PBS pH 7.4, 37° C., 5 min
Metric Name: Compound concentration: Pamoic acid (mM)

Compound	Metric Name	Measured Result
CCCCN1CCCCC1C(=O)Nc1c(C)cccc1C.CCCCN1CCCCC1C(=O)Nc1c(C)cccc1C.O=C(O)c1cc2ccccc2c(Cc2c(O)c(C(=O)O)cc3ccccc23)c1O [Preparation Example 15, bis(bupivacaine) pamoate]	Compound concentration: Pamoic acid	0.0572
CCCCN1CCCCC1C(=O)Nc1c(C)cccc1C.CCCCN1CCCCC1C(=O)Nc1c(C)cccc1C.O=C(O)c1cc2ccccc2c(Cc2c(O)c(C(=O)O)cc3ccccc23)c1O [Preparation Example 29, bis(bupivacaine) pamoate]	Compound concentration: Pamoic acid	0.0782
CCCN1CCCC[C@H]1C(=O)Nc1c(C)cccc1C.O=C(O)c1cc2ccccc2c(Cc2c(O)c(C(=O)O)cc3ccccc23)c1O [Preparation Example 9, mono(ropivacaine) pamoate]	Compound concentration: Pamoic acid	0.3459
